Experiment description: Balb/C mouse pharmacokinetics (plasma, colon, ileum)
Format: in vivo
Details: male, po, Balb/C mice, p.o. 5 mg/kg, ileum, read-out: Curve area AUC0-∞
Observed property: AUC(0-inf) (ng·h/mL)
Give the value, in units of ng·h/mL, as a plain number.

Recorded results for 5 compounds are shown here.
Cc1cc(Nc2nc(N[C@@H]3C[C@H]4CCC[C@@H](C3)N4S(=O)(=O)c3ccccn3)nc3sccc23)n[nH]1: 20700
Cc1cc(Nc2nc(N[C@@H]3C[C@H]4CC[C@@H](C3)N4CCC#N)nc3sc(C)cc23)n[nH]1: 43300
Cc1cc(Nc2nc(N[C@@H]3C[C@H]4CC[C@@H](C3)N4CCC#N)nc3ccsc23)n[nH]1: 103000
Cc1cc(Nc2nc(N[C@@H]3C[C@H]4CCC[C@@H](C3)N4C(=O)c3nccn3C)nc3sccc23)n[nH]1: 9940
CNCC(=O)N1[C@@H]2CCC[C@H]1C[C@H](Nc1nc(Nc3cc(C)[nH]n3)c3ccsc3n1)C2: 24900

Measured AUC(0-inf) of "Cc1cc(Nc2nc(N[C@@H]3C[C@H]4CCC[C@@H](C3)N4C(=O)c3ccncc3)nc3sccc23)n[nH]1" : 40300
